This collection of values is drawn from patent US4876260A.

system_tested: muscarinic receptors (3H-CD sites, M1 and M2, forebrain)
experimental_details: Displacement of 3H-cis-dioxolane (3H-CD, non-selective M1 and M2 agonist) from rat forebrain homogenate
Type: binding
settings: (c) forebrain; * in M × 10^-10
measurement_type: Ki

Entry O=C1CCCN1CC#CCN1CCCC1 [compound 1, Oxotremorine] , muscarinic receptors (3H-CD sites, M1 and M2, forebrain) data, Ki value: 0.96 nM

---

Provide the reported b:b" of each item.
Test system: muscarinic receptors (3H-QNB sites, cerebellum, mainly M2)
experimental_details: biochemical
Assay type: binding, rat
settings: (j) Ki(3H-QNB) forebrain : Ki(3H-QNB) cerebellum
One number for each entry.

O=C1CCCN1CC#CCN1CCCC1 [compound 1, Oxotremorine]	3.00
C[C@H]1O[C@]2(CS1)CN1CCC2CC1 (single isomer, unassigned) [compound 6]	0.48
C[C@@H]1O[C@]2(CS1)CN1CCC2CC1 (relative stereo) [compound 3]	0.88
C[C@H]1O[C@]2(CS1)CN1CCC2CC1 (single isomer, unassigned) [Compound #5]	0.47

Alright, here's another compound for you.
Entry C[C@H]1O[C@]2(CS1)CN1CCC2CC1 (relative stereo) [compound 4] , muscarinic receptors (3H-QNB sites, cerebellum, mainly M2) data, b:b" value: 0.47
